System: HCC 2998
run_description: NCI tumour cell line growth inhibition, 48 h
Active and inactive are the calls of the source. Rule as the data show it: active = GI50 up to about 1.1 µM and inactive = higher.
assay_readout: GI50

> print(dat)
                                   compound  assay.readout      reported.result
1  O=S(=O)(O)c1cc(/N=N/c2cc(S(=O)(=O)O)c3ccccc3c2O)ccc1/C=C/c1ccc(/N=N/c2cc(S(=O)(=O)O)c3ccccc3c2O)cc1S(=O)(=O)O           GI50  > 100 µM (inactive)
2  O=C1/C(=C/c2cccc([N+](=O)[O-])c2)N=C(c2ccccc2)N1c1nc2c(Cl)cc(Cl)cc2s1           GI50   27.5 µM (inactive)
3  CCOc1ccc(NC(=S)N/C=C(/C(C)=O)C(=O)Nc2ccccc2C)cc1           GI50  > 100 µM (inactive)
4                      CCCCNc1nc(C#N)c(N)s1           GI50  > 100 µM (inactive)
5  CC(Br)C(=O)NN1C2=C(Nc3ccccc31)c1cccc3cccc2c13 (stereo not given)           GI50   13.5 µM (inactive)
6  O=C(CC1(O)C(=O)Nc2ccc(Br)cc21)c1ccc(Cl)cc1Cl (stereo not given)           GI50   91.8 µM (inactive)
7        O[C@H]1[C@H]2[C@H](O)CCCN2C[C@H]1O           GI50  > 100 µM (inactive)
8  COC(=O)N/N=C(\C)C(CN1CCOCC1)C(c1ccccc1)c1cc2ccccc2oc1=O (stereo not given)           GI50  > 100 µM (inactive)

Ask: I am curious: what GI50 value has been reported for `Cc1cc2c(C=O)n[nH]c2c(C#N)c1C` ?
Result: > 100 µM (inactive)

Ask: I am curious: what GI50 value has been reported for CCOC(=O)C1C(=O)CC(C)(O)C(C(=O)OCC)C1c1ccc(N(C)C)cc1 (stereo not given) ?
Result: > 100 µM (inactive)

###

Test system: HCT-116
run_description: NCI tumour cell line growth inhibition, 48 h
Activity calls are given as the source filed them. Cut-off read from the data, not from the text of the source: active = GI50 up to about 1.1 µM and inactive = higher.
Outcome field: choose from Yes = active, No = inactive

Known results for compounds:
> print(dat)
                                   compound  discrete.label
1  O=C(CC1(O)C(=O)Nc2ccc(Br)cc21)c1ccc(Cl)cc1Cl (configuration not stated)              No
2        C#CC1(O)CCCCCCCCC2(CCCCCCCC1)OCCO2              No
3  COC1(OC)CC(CO)(CNc2nc(N)nc(Cl)c2/C=N\O)C1              No

Ask: Record request — test call for `CCCCNS(=O)(=O)c1ccc(-c2ccc3c(c2)-c2ccc(S(=O)(=O)NCCCC)cc2S3(=O)=O)cc1`
Result: No

Ask: Record request — test call for `COC(=O)[C@@](C)(COC(=O)C(C)(C)C)NC(=O)OC(C)(C)C`
Result: No

###

System: NCI-H23
run_description: NCI tumour cell line growth inhibition, 48 h
Active and inactive are the calls of the source. Rule as the data show it: active = GI50 up to about 1.1 µM and inactive = higher.
assay_readout: GI50

> print(dat)
                                   compound  assay.readout      reported.result
1  C=C1[C@H](OCC(C)C)[C@@H](OCC(C)C)[C@@H](O)C(C)(C)/C=C/[C@H](C)C(=O)[C@@]2(O)C[C@H](C)[C@H](O)[C@@H]2[C@H]1OCC(C)C           GI50  > 7.5 µM (inactive)

Ask: I am curious: what GI50 value has been reported for `Cc1cccc2c(=O)c3c(O)cc(O)cc3n(C)c12` ?
Result: > 100 µM (inactive)

Ask: I am curious: what GI50 value has been reported for COC(=O)C1=C(O)CCCC(C2CCCCC(=O)C2C(=O)OC)=C1 (stereo not given) ?
Result: 70.3 µM (inactive)

Ask: I am curious: what GI50 value has been reported for O=C1NC(=O)C(C(CC(=O)c2ccc([N+](=O)[O-])cc2)c2ccccc2)C(=O)N1 (stereo not given) ?
Result: 20.7 µM (inactive)

Ask: I am curious: what GI50 value has been reported for `O=C(Sc1n[nH]c(=O)[nH]c1=O)c1cccc2nc3ccccc3nc12` ?
Result: 3.78 µM (inactive)

###

System: SNB-19
run_description: NCI tumour cell line growth inhibition, 48 h
Activity calls are given as the source filed them. No stated cut-off is given here; in the data, active = GI50 up to about 1.1 µM and inactive = higher.
Outcome field: choose from active, inactive

Known results for compounds:
> print(dat)
                                   compound  subject.of.test  discrete.label
1  CCCC(=O)Nc1cc(/C=C/C(=O)N2CC(CCl)c3ccc(N)cc32)n(C)c1 (stereo unspecified)           SNB-19          active
2             COC(=O)CN(C)P(=O)(N1CC1)N1CC1           SNB-19        inactive
3           CCCCC(=O)Oc1ccc2c(C)cc(=O)oc2c1           SNB-19        inactive

Turning now to a further compound:
Ask: Record request — test call for Nc1ncnc2c1ncn2C1C=CC(COS(N)(=O)=O)C1 (stereo unspecified)
Result: inactive

###

Test system: 786-0
run_description: NCI tumour cell line growth inhibition, 48 h
Active and inactive are the calls of the source. Rule as the data show it: active = GI50 up to about 1.1 µM and inactive = higher.
# GI50 annotations

compound	GI50
COc1cccc(-c2cc(O)c3cc4c(cc3n2)OCO4)c1	0.107 µM (active)
O=C1C(Nc2ccc(S(=O)(=O)Nc3cnc4ccccc4n3)cc2)=C/C(=N\c2ccc(S(=O)(=O)Nc3cnc4ccccc4n3)cc2)c2ccccc21	17.2 µM (inactive)

Ask: Which GI50 is reported with 786-0 for this entry: `CCOC(=O)C(=Cc1cc(OC)ccc1OC)C(=O)OCC` ?
Result: 3.56 µM (inactive)

Ask: Which GI50 is reported with 786-0 for this entry: `O=C(Sc1n[nH]c(=O)[nH]c1=O)c1cccc2nc3ccccc3nc12` ?
Result: > 100 µM (inactive)

Ask: Which GI50 is reported with 786-0 for this entry: `Cc1c2c(OCCN3CCCCC3)nn(C)c(=O)c2c(C)n1-c1ccccc1` ?
Result: 18.8 µM (inactive)

Ask: Which GI50 is reported with 786-0 for this entry: Nc1nc(Cl)cc(NCC2(CO)CCC(Cc3ccccc3)C2)n1 (stereo not drawn) ?
Result: 27.7 µM (inactive)

Ask: Which GI50 is reported with 786-0 for this entry: `CC(=O)Oc1cccc2c1C(=O)CCCC2` ?
Result: > 100 µM (inactive)

Ask: Which GI50 is reported with 786-0 for this entry: `N#C/C(=C\c1cn(Cc2ccccc2)c2ccccc12)c1nn(-c2ccccc2)c(N)c1C#N` ?
Result: 7.83 µM (inactive)

Ask: Which GI50 is reported with 786-0 for this entry: `S=C(/N=c1\sc(NCc2ccccc2)nc2sc3c(c12)CCN(N1CCc2c(sc4nc(NCc5ccccc5)s/c(=N\C(=S)NCc5ccccc5)c24)C1)C3)NCc1ccccc1` ?
Result: 9.64 µM (inactive)

Ask: Which GI50 is reported with 786-0 for this entry: `O=C(CSC1=NC(=O)C2(NN1)c1ccccc1-c1ccccc12)NC(=S)Nc1ccccc1` ?
Result: > 10 µM (inactive)

Ask: Which GI50 is reported with 786-0 for this entry: C=C1C(=O)O[C@@H]2O[C@@]3(C)CC[C@H]4[C@H](C)CC[C@@H]1[C@@]24O3 [DEOXYARTEMISITENE] ?
Result: 13.6 µM (inactive)

Ask: Which GI50 is reported with 786-0 for this entry: `O=C1CCCC/C1=C1\C(=O)Nc2cc(F)ccc21` ?
Result: > 100 µM (inactive)

Ask: Which GI50 is reported with 786-0 for this entry: CC(C)(C)OC(=O)NC(CS(=O)(=O)O)C(=O)O (stereo not drawn) ?
Result: > 100 µM (inactive)

Ask: Which GI50 is reported with 786-0 for this entry: `Nc1nc2sc3ccccc3c(=O)n2n1` ?
Result: > 100 µM (inactive)

Ask: Which GI50 is reported with 786-0 for this entry: CC(CC(=O)Nc1ccc(NC(=O)CC(C)/N=N\C(N)=O)cc1)/N=N\C(N)=O (stereo not drawn) ?
Result: > 100 µM (inactive)

Ask: Which GI50 is reported with 786-0 for this entry: Fc1ccc(C2SCc3nc4ccccc4n32)cc1F (stereo not drawn) ?
Result: 55.3 µM (inactive)

Ask: Which GI50 is reported with 786-0 for this entry: `c1ccc2c(OCCSCCCCCCCCCCSCCOc3cccc4ccccc34)cccc2c1` ?
Result: > 100 µM (inactive)

Ask: Which GI50 is reported with 786-0 for this entry: `Cc1ccc(-c2ccc(Nc3c4ccccc4nc4ccccc34)cc2)cn1` ?
Result: 1.66 µM (inactive)

Ask: Which GI50 is reported with 786-0 for this entry: Fc1ccc2c(c1)SC1Oc3ccccc3-c3c1c-2nn3-c1ccccc1 (stereo not drawn) ?
Result: > 100 µM (inactive)

Ask: Which GI50 is reported with 786-0 for this entry: `C/C=C(/C)C(=O)O[C@H]1[C@H]2[C@@H]([C@@H](OC(C)=O)[C@H](C)C(=O)[C@@]34C[C@@H](C)C(=O)[C@]3(/C=C(\C)[C@H]1OC(C)=O)O4)C2(C)C` ?
Result: 2.67 µM (inactive)
